Values were extracted from ChEMBL document CHEMBL3046727.

Catalogue of molecules with associated LC50
system: Artemia salina; experiment: Toxicity in Artemia salina (brine shrimp) measured after 24 hr; format: organism-based; settings: in vivo

{"molecule": "O=C(/C=C/c1ccccc1)OCCc1ccccc1 [PHENETHYL CINNAMATE]", "LC50": "< 2.5 ppm"}
{"molecule": "CS/C=C/C(=O)OCCc1ccccc1", "LC50": "< 2.5 ppm"}
{"molecule": "Cl[C@H]1[C@H](Cl)[C@@H](Cl)[C@@H](Cl)[C@H](Cl)[C@H]1Cl", "LC50": "7.2 ppm"}
{"molecule": "O=C(OC[C@H](O)c1ccccc1)c1ccccc1", "LC50": "7.4 ppm"}
{"molecule": "O=C(/C=C\\c1ccccc1)OCCc1ccccc1", "LC50": "< 2.5 ppm"}
{"molecule": "O=C(OCCc1ccccc1)c1ccccc1 [PHENETHYL BENZOATE]", "LC50": "< 2.5 ppm"}
